# tested-target: AMP deaminase 2 (Homo sapiens, UniProt Q01433)
# Sequence (Q01433 whole entry): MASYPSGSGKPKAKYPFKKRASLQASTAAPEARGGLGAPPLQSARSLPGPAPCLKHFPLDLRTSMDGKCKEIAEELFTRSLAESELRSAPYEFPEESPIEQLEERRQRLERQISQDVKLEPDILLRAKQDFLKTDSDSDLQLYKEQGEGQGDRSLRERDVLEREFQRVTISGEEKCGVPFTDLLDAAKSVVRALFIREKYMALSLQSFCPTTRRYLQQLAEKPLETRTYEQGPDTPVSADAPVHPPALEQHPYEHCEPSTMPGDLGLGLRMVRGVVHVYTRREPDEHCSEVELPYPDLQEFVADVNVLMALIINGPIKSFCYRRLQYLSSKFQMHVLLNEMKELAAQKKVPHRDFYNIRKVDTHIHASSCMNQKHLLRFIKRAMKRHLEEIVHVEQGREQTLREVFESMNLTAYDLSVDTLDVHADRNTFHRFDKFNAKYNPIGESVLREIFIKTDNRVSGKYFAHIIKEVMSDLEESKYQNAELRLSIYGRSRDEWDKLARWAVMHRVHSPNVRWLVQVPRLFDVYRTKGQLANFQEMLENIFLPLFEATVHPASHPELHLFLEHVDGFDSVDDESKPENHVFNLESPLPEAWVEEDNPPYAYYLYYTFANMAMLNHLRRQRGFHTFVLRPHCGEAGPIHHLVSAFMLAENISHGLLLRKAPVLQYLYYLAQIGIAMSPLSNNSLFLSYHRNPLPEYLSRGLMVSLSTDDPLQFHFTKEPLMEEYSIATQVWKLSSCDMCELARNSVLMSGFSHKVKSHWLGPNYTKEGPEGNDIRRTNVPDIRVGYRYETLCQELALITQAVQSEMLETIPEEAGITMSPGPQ
# measurement-protocol: Inhibition of recombinant human AMPD2 using AMP as substrate preincubated for 30 mins followed by substrate addition and measured after 30 mins by spectrophotometric analysis
outcome-measure: IC50 (nM)

Reference set, count: 3
INSERT INTO measurements (smiles_representation, tested_target, units_text, observed_value) VALUES
  ('Cc1ccc(CN2c3ccccc3N(C(N)=O)CC2(C)C)cc1', 'AMP deaminase 2 (Homo sapiens, UniProt Q01433)', 'nM', 170),
  ('CC1(C)CN(C(N)=O)c2ccc(F)c(F)c2N1Cc1ccc(COc2ccccc2)cc1', 'AMP deaminase 2 (Homo sapiens, UniProt Q01433)', 'nM', 130),
  ('CC1(C)CN(C(N)=O)c2ccccc2N1Cc1ccc(Cl)cc1', 'AMP deaminase 2 (Homo sapiens, UniProt Q01433)', 'nM', 190);

A = CC(=O)Nc1ccc(OCc2ccc(CN3c4c(ccc(F)c4F)N(C(N)=O)CC3(C)C)cc2)cc1
B = CC1(C)CN(C(N)=O)c2cc(F)cc(F)c2N1Cc1ccccc1
Query string: Looking only at measured IC50, which entry is lower, A or B ? Let me know the label of the one you choose.
Result string: A
